Data provenance is paper PMC12059914.

# tgt: IRAP (insulin-regulated aminopeptidase) (Homo sapiens, UniProt Q9UIQ6)
# Construct: gene LNPEP; extracellular (luminal) aminopeptidase domain; Rhodopsin 1D4 tag (given as N-terminal); secreted from stably transfected HEK 293S GnTI(-) cells; PDB ids are the docking structures
# Sequence (Q9UIQ6 132-1025 limits assumed): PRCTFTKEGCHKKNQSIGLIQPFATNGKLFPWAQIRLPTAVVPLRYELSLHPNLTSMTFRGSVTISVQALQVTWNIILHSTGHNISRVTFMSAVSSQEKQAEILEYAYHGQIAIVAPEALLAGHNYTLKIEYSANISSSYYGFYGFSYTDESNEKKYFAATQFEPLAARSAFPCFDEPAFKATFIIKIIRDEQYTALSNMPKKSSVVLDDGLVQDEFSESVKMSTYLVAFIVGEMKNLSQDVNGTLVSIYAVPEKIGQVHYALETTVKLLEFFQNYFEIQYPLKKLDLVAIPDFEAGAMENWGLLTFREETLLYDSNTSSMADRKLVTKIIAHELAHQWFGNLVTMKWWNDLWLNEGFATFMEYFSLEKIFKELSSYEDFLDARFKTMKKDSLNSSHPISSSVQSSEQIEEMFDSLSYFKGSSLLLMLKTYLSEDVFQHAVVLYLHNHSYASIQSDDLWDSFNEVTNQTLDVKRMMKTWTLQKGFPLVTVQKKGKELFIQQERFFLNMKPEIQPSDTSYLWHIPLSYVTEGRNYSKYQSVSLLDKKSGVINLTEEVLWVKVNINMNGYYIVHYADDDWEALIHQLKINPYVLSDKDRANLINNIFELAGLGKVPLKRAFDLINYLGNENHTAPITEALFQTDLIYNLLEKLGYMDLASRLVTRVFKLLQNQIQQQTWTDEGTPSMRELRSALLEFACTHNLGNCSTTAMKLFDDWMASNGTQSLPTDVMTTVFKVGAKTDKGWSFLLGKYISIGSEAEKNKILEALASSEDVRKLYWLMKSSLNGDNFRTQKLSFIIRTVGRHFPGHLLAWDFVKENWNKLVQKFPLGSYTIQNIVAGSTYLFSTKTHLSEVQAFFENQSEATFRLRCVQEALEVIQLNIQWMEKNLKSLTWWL
# assay remarks: fluorogenic Leu-AMC hydrolysis, dose-response
# Type: biochemical
quantity measured: IC50 (µM)

A = Cc1ccc(CC(C)(CO)NC(=O)c2cc(-c3c[nH]c4ccccc34)[nH]n2)cc1 (racemic)
B = O=C(O)c1cc(CN2CCCCC2CCCc2ccccc2)[nH]n1 (racemic)
C = NCc1cc(C(=O)NC(Cc2ccccc2Cl)c2ccccc2)n[nH]1 (racemic)
[Q] sort_by: IC50; order: ascending; scope: items listed above List each label, following the requested order.
[A] B, C, A
